assayedTarget: AKT1 E17K (Homo sapiens, UniProt P31749, E17K)
Sequence (P31749 whole entry E17K): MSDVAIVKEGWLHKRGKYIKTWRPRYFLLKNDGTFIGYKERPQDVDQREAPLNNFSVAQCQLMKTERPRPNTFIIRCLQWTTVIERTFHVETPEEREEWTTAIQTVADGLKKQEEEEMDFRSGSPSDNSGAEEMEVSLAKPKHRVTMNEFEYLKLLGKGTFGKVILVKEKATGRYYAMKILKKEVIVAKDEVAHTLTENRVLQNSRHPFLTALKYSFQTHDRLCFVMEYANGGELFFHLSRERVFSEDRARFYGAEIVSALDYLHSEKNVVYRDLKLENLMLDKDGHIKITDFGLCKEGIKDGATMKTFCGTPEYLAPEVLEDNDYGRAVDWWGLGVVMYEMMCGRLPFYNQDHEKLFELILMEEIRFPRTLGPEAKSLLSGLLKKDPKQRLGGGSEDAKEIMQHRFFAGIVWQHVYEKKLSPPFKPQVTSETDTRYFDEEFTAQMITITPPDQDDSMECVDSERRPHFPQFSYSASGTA
assayMethodText: Live cell target engagement by NanoBRET competitive probe displacement, AKT1 E17K
reportedConditions: transfected HEK293 cells, 2 h at 37° C., read-out: AKT1 E17K IC50: GeoMean IC50
Experimental: Determining live cell AKT1 E17K, AKT1 WT, and AKT2 target engagement by NanoBRET competitive probe displacement. Live cell target engagement assays were performed as described (Vasta, J. D. et al. Cell Chem Biol 2018, 25(11), 206-214). […] After incubation for 2 h at 37° C., luciferase substrate and extracellular luciferase inhibitor were added to all wells, and luminescent intensity at 460 nm and 600 nm were measured on a multimode plate-reader. […]
readout: IC50

[Q] Would you mind telling me what IC50 value was observed for Nc1ncccc1-c1nc2ccc(-c3ccccc3)nc2n1-c1ccc2c(c1)CC[C@H]2NC(=O)c1ccc(O)c(C=O)c1 [Example 7] ?
[A] 100 to 2000 nM

[Q] What do you get for Nc1ncccc1-c1nc2ccc(-c3ccn(C(F)F)n3)nc2n1-c1ccc2c(c1)CC[C@@H]2NC(=O)c1cc(C=O)c(O)cc1F [Example 158] ?
[A] 10 to 100 nM

[Q] Item: CN(C)c1nc2cc(C(=O)N[C@H]3CCc4cc(-n5c(-c6cccnc6N)nc6ccc(-n7cccn7)nc65)ccc43)cc(C=O)c2[nH]1 [Example 175]
[A] < 10 nM

[Q] Also Nc1ncccc1-c1nc2ccc(-n3nccn3)nc2n1-c1ccc2c(c1)CC[C@@H]2NC(=O)c1ccc(O)c(C=O)c1 [Example 91] ?
[A] 10 to 100 nM

[Q] Try this compound too: Nc1ncccc1-c1nc2ccc(-n3ncc4c3COC4)nc2n1-c1ccc2c(c1)CC[C@@H]2NC(=O)c1ccc(O)c(C=O)c1 [Example 206]
[A] < 10 nM

[Q] Moving on to the next compound: CN(C)C(=O)Nc1ccc(C(=O)N[C@H]2CCc3cc(-n4c(-c5cccnc5N)nc5ccc(-n6ccc(F)n6)nc54)ccc32)cc1C=O [Example 122]
[A] < 10 nM

[Q] Similarly, Nc1ncccc1-c1nc2ccc(-c3ccccc3)nc2n1-c1ccc2c(c1)CC[C@@H]2NC(=O)Cc1ccc(C=O)c(O)c1Cl [Example 9] ?
[A] 10 to 100 nM

[Q] What do you get for C#Cc1ccc(C(=O)N[C@H]2CCc3cc(-n4c(-c5cccnc5N)nc5ccc(-n6cccn6)nc54)ccc32)cc1C=O [Example 155] ?
[A] 10 to 100 nM

[Q] Okay, and Nc1ncccc1-c1nc2ccc(-c3nccs3)nc2n1-c1ccc2c(c1)CC[C@@H]2NC(=O)c1ccc(O)c(C=O)c1 [Example 57] ?
[A] 10 to 100 nM

[Q] What do you get for C#Cc1c(C(=O)N[C@H]2CCc3cc(-n4c(-c5cccnc5N)nc5ccc(-n6cccn6)nc54)ccc32)ccc(O)c1C=O [Example 112] ?
[A] 10 to 100 nM

[Q] Then what about the compound Nc1ncccc1-c1nc2ccc(-n3cccn3)nc2n1-c1ccc2c(c1)CC[C@@H]2NC(=O)Cc1ccc(C=O)c(O)c1F [Example 216, trifluoroacetic acid] ?
[A] 10 to 100 nM

[Q] Ok, now Nc1ncccc1-c1nc2ccc(-c3ccccc3)nc2n1-c1ccc2c(c1)CC[C@@H]2NC(=O)c1cc(C=O)c(O)cc1F [Example 16]
[A] 10 to 100 nM

[Q] Same lookup for Nc1ncccc1-c1nc2ccc(-n3cncn3)nc2n1-c1ccc2c(c1)CC[C@@H]2NC(=O)c1ccc(O)c(C=O)c1 [Example 97] , please.
[A] 10 to 100 nM

[Q] Also need Cc1cc(-n2ccc(F)n2)nc2c1nc(-c1cccnc1N)n2-c1ccc2c(c1)CC[C@@H]2NC(=O)c1cc(C=O)c(O)c(F)c1F [Example 199] , thanks.
[A] < 10 nM

[Q] Now the compound Nc1ncccc1-c1nc2ccc(-c3ccccc3)nc2n1-c1ccc2c(c1)CC[C@@H]2NC(=O)c1ccc(B(O)O)c(C=O)c1 [Example 161]
[A] 10 to 100 nM

[Q] Next: COc1cnn(-c2ccc3nc(-c4cccnc4N)n(-c4ccc5c(c4)CC[C@@H]5NC(=O)c4ccc(O)c(C=O)c4)c3n2)c1 [Example 83]
[A] 10 to 100 nM

[Q] Now give it for Cc1ccc2nc(-c3cccnc3N)n(-c3ccc4c(c3)CC[C@@H]4NC(=O)c3ccc(O)c(C=O)c3)c2n1 [Example 13] too.
[A] 10 to 100 nM

[Q] Lookup Nc1ncccc1-c1nc2ccc(-c3ccccc3)nc2n1-c1ccc2c(c1)CC[C@@H]2NC(=O)c1ccc(NC(=O)C(F)F)c(C=O)c1 [Example 52]
[A] < 10 nM

[Q] Same read-out for Nc1ncccc1-c1nc2c(C3CC3)cc(-n3cccn3)nc2n1-c1ccc2c(c1)CC[C@@H]2NC(=O)c1ccc(O)c(C=O)c1 [Example 230] ?
[A] 10 to 100 nM

[Q] // repeat for Nc1ncccc1-c1nc2ccc(-n3ccc(Cl)n3)nc2n1-c1ccc2c(c1)CC[C@@H]2NC(=O)c1ccc(O)c(C=O)c1 [Example 96] and report
[A] 10 to 100 nM

[Q] Then Nc1ncccc1-c1nc2ccc(Br)nc2n1-c1ccc2c(c1)CC[C@@H]2NC(=O)c1ccc(O)c(C=O)c1 [Example 37] ?
[A] 10 to 100 nM

* * *

assayedTarget: UniProt:P31749
assayMethodText: Live cell target engagement by NanoBRET competitive probe displacement, AKT1 WT
reportedConditions: transfected HEK293 cells, 2 h at 37° C., read-out: AKT1 WT IC50: GeoMean IC50
Description: Determining live cell AKT1 E17K, AKT1 WT, and AKT2 target engagement by NanoBRET competitive probe displacement. Live cell target engagement assays were performed as described (Vasta, J. D. et al. Cell Chem Biol 2018, 25(11), 206-214). […] After incubation for 2 h at 37° C., luciferase substrate and extracellular luciferase inhibitor were added to all wells, and luminescent intensity at 460 nm and 600 nm were measured on a multimode plate-reader. […]
pIC50: −log10 of the molar value.
readout: pIC50

[Q] Under UniProt:P31749: pIC50 value of CN(C)c1ccn(-c2ccc3nc(-c4cccnc4N)n(-c4ccc5c(c4)CC[C@@H]5NC(=O)c4ccc(O)c(C=O)c4)c3n2)n1 [Example 114] ?
[A] 7.00 to 8.00

[Q] Subsequent entry: Nc1ncccc1-c1nc2ccc(-c3ccn(C4COC4)n3)nc2n1-c1ccc2c(c1)CC[C@@H]2NC(=O)c1ccc(O)c(C=O)c1 [Example 171]
[A] 7.00 to 8.00

[Q] # repeat for Nc1ncccc1-c1nc2ccc(-n3cccn3)nc2n1-c1ccc2c(c1)CC(F)(F)[C@@H]2NC(=O)c1ccc(O)c(C=O)c1 [Example 195]
[A] 5.70 to 7.00

* * *

assayedTarget: AKT2 (Homo sapiens, UniProt P31751)
Sequence (P31751 whole entry): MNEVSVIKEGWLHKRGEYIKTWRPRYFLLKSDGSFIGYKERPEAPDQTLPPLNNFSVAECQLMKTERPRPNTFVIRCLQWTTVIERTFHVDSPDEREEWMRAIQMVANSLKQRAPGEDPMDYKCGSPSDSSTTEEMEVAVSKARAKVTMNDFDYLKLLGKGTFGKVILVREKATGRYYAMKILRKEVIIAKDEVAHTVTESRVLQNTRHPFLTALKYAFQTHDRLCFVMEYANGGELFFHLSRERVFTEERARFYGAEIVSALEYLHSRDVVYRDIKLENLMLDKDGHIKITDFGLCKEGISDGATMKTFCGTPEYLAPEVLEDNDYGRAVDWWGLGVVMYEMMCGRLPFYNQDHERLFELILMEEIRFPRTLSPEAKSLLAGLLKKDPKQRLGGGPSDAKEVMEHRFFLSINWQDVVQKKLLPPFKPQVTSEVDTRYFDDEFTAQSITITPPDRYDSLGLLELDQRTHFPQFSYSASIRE
assayMethodText: Live cell target engagement by NanoBRET competitive probe displacement, AKT2
reportedConditions: transfected HEK293 cells, 2 h at 37° C., read-out: AKT2 IC50: GeoMean IC50
pIC50: −log10 of the molar value.
readout: pIC50

[Q] So what does the record say about pIC50 for Nc1ncccc1-c1nc2ccc(-c3cccnn3)nc2n1-c1ccc2c(c1)CC[C@@H]2NC(=O)c1ccc(O)c(C=O)c1 ?
[A] 5.70 to 7.00

[Q] Same lookup for Nc1ncccc1-c1nc2ccc(-c3ncco3)nc2n1-c1ccc2c(c1)CC[C@@H]2NC(=O)c1cc(C=O)c(O)c(F)c1F , please.
[A] 5.70 to 7.00

[Q] What would you report for Nc1ncccc1-c1nc2ccc(-n3cccn3)nc2n1-c1ccc2c(c1)CC[C@@H]2NC(=O)c1cc(C=O)c(O)cc1F ?
[A] 5.70 to 7.00

[Q] Okay, and C#Cc1cc(O)c(C=O)cc1C(=O)N[C@H]1CCc2cc(-n3c(-c4cccnc4N)nc4ccc(-n5cccn5)nc43)ccc21 ?
[A] 5.70 to 7.00

[Q] Now this one: Cn1ncc(-c2ccc3nc(-c4cccnc4N)n(-c4ccc5c(c4)CC[C@@H]5NC(=O)c4ccc(O)c(C=O)c4)c3n2)n1
[A] 5.70 to 7.00

[Q] Now the same for Nc1ncccc1-c1nc2ccc(-n3cccn3)nc2n1-c1ccc2c(c1)CC[C@@H]2NC(=O)c1cc(C=O)c(O)cc1O
[A] 5.70 to 7.00

[Q] Next molecule up: Cc1cc(C)n(-c2ccc3nc(-c4cccnc4N)n(-c4ccc5c(c4)CC[C@@H]5NC(=O)c4ccc(O)c(C=O)c4)c3n2)n1
[A] 5.70 to 7.00

[Q] And Cc1nnc(-c2ccc3nc(-c4cccnc4N)n(-c4ccc5c(c4)CC[C@@H]5NC(=O)c4ccc(O)c(C=O)c4)c3n2)s1 ?
[A] 5.70 to 7.00

[Q] Also Cc1cc(-n2cccn2)nc2c1nc(-c1cccnc1N)n2-c1ccc2c(c1)CC[C@@H]2NC(=O)c1cc(C=O)c(O)cc1F ?
[A] 7.00 to 8.00

[Q] Query Nc1ncccc1-c1nc2ccc(-c3ccn(C4COC4)n3)nc2n1-c1ccc2c(c1)CC[C@@H]2NC(=O)c1ccc(O)c(C=O)c1 next
[A] 5.70 to 7.00

[Q] Nc1ncccc1-c1nc2ccc(-c3ccccc3)nc2n1-c1ccc2c(c1)CC[C@@H]2NC(=O)c1ccc(NC(=O)C2CC2)c(C=O)c1 , same question.
[A] 7.00 to 8.00

[Q] Now give it for Nc1ncccc1-c1nc2ccc(-c3ccccc3)nc2n1-c1ccc2c(c1)CCC2NCCc1ccc(C=O)c(O)c1 (stereo not drawn) too.
[A] 5.70 to 7.00

[Q] Next molecule: CN(C)c1cc(C(=O)N[C@H]2CCc3cc(-n4c(-c5cccnc5N)nc5ccc(-n6cccn6)nc54)ccc32)cc(C=O)c1O
[A] ≤ 5.70

[Q] Repeat for the following molecule: COc1c(O)c(C=O)cc(C(=O)N[C@H]2CCc3cc(-n4c(-c5cccnc5N)nc5ccc(-n6cccn6)nc54)ccc32)c1F
[A] 5.70 to 7.00

[Q] Param item: Nc1ncccc1-c1nc2ccc(-n3cccn3)nc2n1-c1ccc2c(c1)CC[C@@H]2NC(=O)c1cc(C=O)c(F)cc1F
[A] 5.70 to 7.00

[Q] Do the same for CN(C)C(=O)Nc1ccc(C(=O)N[C@H]2CCc3cc(-n4c(-c5cccnc5N)nc5ccc(-c6ccccc6)nc54)ccc32)cc1C=O please
[A] 7.00 to 8.00

[Q] Let us now turn to Nc1ncccc1-c1nc2ccc(-c3ccccc3)nc2n1-c1ccc2c(c1)CC[C@@H]2NC(=O)c1ccc(NC(=O)N2CCOCC2)c(C=O)c1
[A] 5.70 to 7.00

[Q] Query Nc1ncccc1-c1nc2ccc(-n3nccn3)nc2n1-c1ccc2c(c1)CC[C@@H]2NC(=O)c1cc(F)c(O)c(C=O)c1 next
[A] 5.70 to 7.00
